# target-entity: T1, human Aβ peptide (1-40) biotinylated at the C terminus (human, UniProt P05067 672-711, biotinylated at the C-terminus)
# T1 construct: domain: β-amyloid peptide (1-40); Numbers 1-40 count on the β-amyloid peptide, not on APP; also called beta-amyloid 1-40 peptide (biotinylated at the C-terminus); streptavidin-captured beta-amyloid (1-40)
# T1 sequence (P05067 672-711 limits assumed): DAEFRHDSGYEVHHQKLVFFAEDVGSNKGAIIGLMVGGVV
# experiment-summary: competition ELISA, biotinylated human Aβ (1-40) on streptavidin plate; competitor: mouse 2E7 at constant concentration; Experiment 2

binder: Humanised 2E7 variant H1L1 (antibody, human IgG1, kappa, V domains shown, Human IgG1 with L235A and G237A, human kappa; also called L1+H1) VH: EVQLVESGGGLVQPGGSLRLSCAASGFTFSDNGMAWVRQAPGKGLEWVSFISNLAYSIDYADTVTGRFTISRDNAKNSLYLQMNSLRAEDTAVYYCVSGTWFAYWGQGTLVTVSS VL: DIVMTQSPLSLPVTPGEPASISCRVSQSLLHSNGYTYLHWYLQKPGQSPQLLIYKVSNRFSGVPDRFSGSGSGTDFTLKISRVEAEDVGVYYCSQTRHVPYTFGGGTKVEIKR
readout-unit: µg/mL
IC50: 1.76
